Substrate: O=C1CCC[C@H]2CCCC[C@H]12
assay overview: purified protein
Assay type: biochemical, Streptomyces coelicolor
run parameters: co-substrate NADPH

| protein | kcat (s⁻¹) |
| --- | --- |
| actKR (actinorhodin type II polyketide ketoreductase) (Streptomyces coelicolor A3(2)) (protein) MATQDSEVALVTGATSGIGLEIARRLGKEGLRVFVCARGEEGLRTTLKELREAGVEADGRTCDVRSVPEIEALVAAVVERYGPVDVLVNNAGRPGGGATAELADELWLDVVETNLTGVFRVTKQVLKAGGMLERGTGRIVNIASTGGKQGVVHAAPYSASKHGVVGFTKALGLELARTGITVNAVCPGFVETPMAASVREHYSDIWEVSTEEAFDRITARVPIGRYVQPSEVAEMVAYLIGPGAAAVTAQALNVCGGLGNY | 2.55 |
| actKR (actinorhodin type II polyketide ketoreductase) (Streptomyces coelicolor A3(2); D109R) (protein) MATQDSEVALVTGATSGIGLEIARRLGKEGLRVFVCARGEEGLRTTLKELREAGVEADGRTCDVRSVPEIEALVAAVVERYGPVDVLVNNAGRPGGGATAELADELWLRVVETNLTGVFRVTKQVLKAGGMLERGTGRIVNIASTGGKQGVVHAAPYSASKHGVVGFTKALGLELARTGITVNAVCPGFVETPMAASVREHYSDIWEVSTEEAFDRITARVPIGRYVQPSEVAEMVAYLIGPGAAAVTAQALNVCGGLGNY | 0.078 |
| actKR (actinorhodin type II polyketide ketoreductase) (Streptomyces coelicolor A3(2); T145A) (protein) MATQDSEVALVTGATSGIGLEIARRLGKEGLRVFVCARGEEGLRTTLKELREAGVEADGRTCDVRSVPEIEALVAAVVERYGPVDVLVNNAGRPGGGATAELADELWLDVVETNLTGVFRVTKQVLKAGGMLERGTGRIVNIASAGGKQGVVHAAPYSASKHGVVGFTKALGLELARTGITVNAVCPGFVETPMAASVREHYSDIWEVSTEEAFDRITARVPIGRYVQPSEVAEMVAYLIGPGAAAVTAQALNVCGGLGNY | 0.18 |
| actKR (actinorhodin type II polyketide ketoreductase) (Streptomyces coelicolor A3(2); V198A) (protein) MATQDSEVALVTGATSGIGLEIARRLGKEGLRVFVCARGEEGLRTTLKELREAGVEADGRTCDVRSVPEIEALVAAVVERYGPVDVLVNNAGRPGGGATAELADELWLDVVETNLTGVFRVTKQVLKAGGMLERGTGRIVNIASTGGKQGVVHAAPYSASKHGVVGFTKALGLELARTGITVNAVCPGFVETPMAASAREHYSDIWEVSTEEAFDRITARVPIGRYVQPSEVAEMVAYLIGPGAAAVTAQALNVCGGLGNY | 0.24 |
| actKR (actinorhodin type II polyketide ketoreductase) (Streptomyces coelicolor A3(2); M194W) (protein) MATQDSEVALVTGATSGIGLEIARRLGKEGLRVFVCARGEEGLRTTLKELREAGVEADGRTCDVRSVPEIEALVAAVVERYGPVDVLVNNAGRPGGGATAELADELWLDVVETNLTGVFRVTKQVLKAGGMLERGTGRIVNIASTGGKQGVVHAAPYSASKHGVVGFTKALGLELARTGITVNAVCPGFVETPWAASVREHYSDIWEVSTEEAFDRITARVPIGRYVQPSEVAEMVAYLIGPGAAAVTAQALNVCGGLGNY | 0.43 |
| actKR (actinorhodin type II polyketide ketoreductase) (Streptomyces coelicolor A3(2); F189A) (protein) MATQDSEVALVTGATSGIGLEIARRLGKEGLRVFVCARGEEGLRTTLKELREAGVEADGRTCDVRSVPEIEALVAAVVERYGPVDVLVNNAGRPGGGATAELADELWLDVVETNLTGVFRVTKQVLKAGGMLERGTGRIVNIASTGGKQGVVHAAPYSASKHGVVGFTKALGLELARTGITVNAVCPGAVETPMAASVREHYSDIWEVSTEEAFDRITARVPIGRYVQPSEVAEMVAYLIGPGAAAVTAQALNVCGGLGNY | 0.049 |
